system: IMR-90 human normal lung cells; test: MTT cytotoxicity, normal lung cells IMR-90; format: cell-based; conditions: 24 h treatment, toxicity to normal cells
pIC50: −log10 of the molar value.
property-measured: pIC50

Challenge: Requested field: pIC50. Item: CCCCCC(CC(O)CCc1ccc(O)c(OC)c1)SCC(N)C(=O)O (stereo not shown)
Response given: < 4.00

Challenge: Which value of pIC50 has been reported for CCCCCC(CC(=O)CCc1ccc(O)c(OC)c1)SC[C@H](NC(C)=O)C(=O)O (stereo partly shown) [M5, 5-N-acetylcysteinyl-[6]-shogaol] in the records?
Response given: < 4.00

Challenge: Quick one: pIC50 of CCCCC/C=C/C(=O)CCc1ccc(O)c(OC)c1 [[6]-shogaol] ?
Response given: 4.44

Challenge: Reported pIC50 for CCCCCCCC(=O)CCc1ccc(O)c(O)c1 [M8, 1-(3',4'-dihydroxyphenyl)-decan-3-one] : what is it?
Response given: < 4.00

Challenge: Please report the recorded pIC50 for CCCCCC(CC(=O)CCc1ccc(O)c(OC)c1)SCC(N)C(=O)O (stereo not shown) [M2, 5-cysteinyl-[6]-shogaol] .
Response given: 4.01

Challenge: Requested read-out: pIC50. Entry: CCCCCC(CC(=O)CCc1ccc(O)c(OC)c1)SCC(NC(=O)CCC(N)C(=O)O)C(=O)NCC(=O)O (stereo not shown) [M13, 5-glutathiol-[6]-shogaol]
Response given: 4.24

Challenge: Find the recorded pIC50 belonging to CCCCCC(CC(O)CCc1ccc(O)c(OC)c1)SCC(NC(C)=O)C(=O)O (stereo not shown) and report it.
Response given: < 4.00

Challenge: Could you tell me which pIC50 is on file for CCCCCC(CC(O)CCc1ccc(O)c(OC)c1)SC (stereo not shown) ?
Response given: < 4.00

Challenge: pIC50 lookup needed for CCCCCCCC(O)CCc1ccc(O)c(OC)c1 (stereo not shown) , thanks.
Response given: < 4.00

Challenge: Look at this compound and give its reported pIC50. CCCCCC=CC(O)CCc1ccc(O)c(OC)c1 (stereo not shown)
Response given: < 4.00

Challenge: Data request, read-out pIC50, for CCCCCCCC(=O)CCc1ccc(O)c(OC)c1
Response given: < 4.00

Challenge: May I ask what pIC50 has been recorded for CCCCCC(CC(=O)CCc1ccc(O)c(OC)c1)SC (stereo not shown) ?
Response given: < 4.00

Challenge: Requested field: pIC50. Item: CCCCCC(CC(=O)CCc1ccc(O)c(OC)c1)OC (stereo not shown)
Response given: < 4.00
